Experimental Details: Half life in Sprague-Dawley rat at 5 mg/kg, iv
Assay type: ADME, organism-based
Condition: in vivo
Property Measured: half-life
Just so you know, I need the unit written after the number.

Entry CCN1C(=O)c2cccc3c(S(=O)(=O)NC4CCCCC4)ccc1c23 has what half-life? 1.13 h

Entry CCN1C(=O)c2cccc3c(NS(=O)(=O)c4cc(Br)ccc4OC)ccc1c23 has what half-life? 0.98 h

---

Target Under Test: Bromodomain testis-specific protein (Homo sapiens) (UniProt Q58F21)
Experimental Details: Binding affinity to human His6-tagged BRDT bromodomain 1 (N21 to E137 residues) expressed in Escherichia coli BL21(DE3) cells at 200 uM incubated for 30 mins by SYPRO orange staining based fluorescence thermal shift assay
Please respond with reported ΔTm for every item in the list.
Give the quantity in °C, number only.

Entry CCN1C(=O)c2cccc3c(S(=O)(=O)Nc4ccc(F)cc4)ccc1c23 has what ΔTm? 5.8

Entry COc1ccc(CCc2nc3cc(-c4c(C)noc4C)ccc3n2C[C@H](C)N2CCOCC2)cc1Cl has what ΔTm? 0.1

Entry CCN1C(=O)c2cccc3c(S(=O)(=O)NCCCN4CCN(C)CC4)ccc1c23 has what ΔTm? 1.1

Entry CCN1C(=O)c2cccc3c(NS(=O)(=O)c4ccc(F)cc4F)ccc1c23 has what ΔTm? 6.6

Entry CCN1C(=O)c2cccc3c(S(=O)(=O)Nc4ccccc4C(=O)O)ccc1c23 has what ΔTm? 4.2

Entry CCN1C(=O)c2cccc3c(S(=O)(=O)NCC4CCN(C(C)=O)CC4)ccc1c23 has what ΔTm? 1.3

Entry CCN1C(=O)c2cccc3c(S(=O)(=O)NCCCCNC(=O)OC(C)(C)C)ccc1c23 has what ΔTm? 3.2

Entry CCCCS(=O)(=O)Nc1ccc2c3c(cccc13)C(=O)N2CC has what ΔTm? 3.5

Entry CCN1C(=O)c2cccc3c(NS(=O)(=O)C4CCCCC4)ccc1c23 has what ΔTm? 5

Entry CCCNS(=O)(=O)c1ccc2c3c(cccc13)C(=O)N2CC has what ΔTm? 2.4
